target: BCL2 WT (Homo sapiens (Human)); test: TR-FRET competitive binding assay, BCL2 WT; conditions: Ki determined from IC50, read-out: TR_FRET EKI_Bcl2 WT
Sequence (P10415 other isoform, or with tags, fused parts or gaps): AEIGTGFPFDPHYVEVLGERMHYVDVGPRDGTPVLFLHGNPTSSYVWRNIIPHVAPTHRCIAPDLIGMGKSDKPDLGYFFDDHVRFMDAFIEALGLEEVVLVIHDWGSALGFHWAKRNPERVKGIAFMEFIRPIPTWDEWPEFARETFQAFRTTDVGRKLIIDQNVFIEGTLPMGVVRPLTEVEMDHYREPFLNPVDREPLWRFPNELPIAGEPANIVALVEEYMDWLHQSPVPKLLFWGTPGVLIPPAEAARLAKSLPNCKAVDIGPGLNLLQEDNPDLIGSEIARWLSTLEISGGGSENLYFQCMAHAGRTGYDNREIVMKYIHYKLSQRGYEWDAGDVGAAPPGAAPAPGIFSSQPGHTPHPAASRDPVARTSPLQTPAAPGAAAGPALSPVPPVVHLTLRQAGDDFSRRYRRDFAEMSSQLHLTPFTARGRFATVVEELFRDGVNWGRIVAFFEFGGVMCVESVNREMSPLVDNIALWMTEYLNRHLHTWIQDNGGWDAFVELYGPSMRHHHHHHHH
pKi: −log10 of the molar value.

compound_string: Cc1c(C(=O)N(c2ccc(O)cc2)c2cc(C#N)n(C(F)F)c2C)cc(-c2cc3c(cc2C(=O)N2Cc4ccccc4C[C@H]2CN2CC4(CCC4)C2)CN(C(=O)Cc2ccc(OCCC4CCOCC4)cc2)CC3)n1C
pKi: 10.15

compound_string: Cc1c(C(=O)N(c2ccc(O)cc2)c2cc(C#N)n(C(F)F)c2C)cc(-c2cc3c(cc2C(=O)N2Cc4ccccc4C[C@H]2C)CN(C(=O)Cc2ccc(OCCN4CCOCC4)cc2)CC3)n1C
pKi: 9.74

compound_string: Cc1c(C(=O)N(c2ccc(O)cc2)c2cc(C#N)n(C(C)C)c2C)cc(-c2cc3c(cc2C(=O)N2Cc4ccccc4C[C@H]2C)CN(C(=O)Cc2ccc(OCCN4CCOCC4)cc2)CC3)n1C
pKi: 9.96

compound_string: Cc1c(C(=O)N(c2ccc(O)cc2)c2ccc(OC(C)C)c(C#N)c2)cc(-c2cc3c(cc2C(=O)N2Cc4ccccc4C[C@H]2CN2CCCCC2)CN(C(=O)Cc2ccc(OCCN4CCOCC4)cc2F)CC3)n1C
pKi: 9.96

compound_string: Cc1c(N(C(=O)c2cc(-c3cc4c(cc3C(=O)N3Cc5ccccc5C[C@H]3CN3CCCCC3)CN(C(=O)Cc3ccc(OCCN(C)C5CC5)cc3F)CC4)n(C)c2C)c2ccc(O)cc2)cc(C#N)n1C
pKi: 10.00
